- System: A498 renal
- test: NCI tumour cell line growth inhibition, 48 h
Assignment: determine reported GI50 for the given compounds.

The following compounds have reported results that may help.
> print(dat)
                                   compound  observation.type   result
1  CCc1cccc2c3c(sc12)C(c1ccc(Cl)cc1)C(C#N)=C(N)O3 (stereo not given)              GI50   224 nM
2  C/C(=C\c1ccn(-c2ccc(N)c(F)c2)n1)[C@@H]1C[C@@H]2O[C@]2(C)CCC[C@H](C)[C@H](O)[C@@H](C)C(=O)C(C)(C)[C@@H](O)CC(=O)O1              GI50   < 5 nM
3  CN(c1ccc(NC(=O)Nc2ccc(OC(F)(F)F)cc2)cc1)c1ccnc(Nc2cccc(S(N)(=O)=O)c2)n1              GI50  1150 nM

Please supply GI50 for each of the following items, keeping them in order.
1. Cc1nc2sc(C(=O)Nc3cccc4ccccc34)c(N)c2cc1C(=O)/C=C/c1ccccc1
2. CCN(CCNc1ccc(C)c2sc3cc(Cl)ccc3c(=O)c12)CC(C)O (stereo not given)

output:
1. 337 nM
2. 1490 nM
